test system: SULT2A1; test: SULT2A1 enzyme activity assay: sulfate conjugation of DHEA with 35S-PAPS, COS-1 cytosol preparations of recombinant allozymes; format: biochemical, human; conditions: apparent Km for DHEA; read-out: DHEA Km
Assignment: determine reported Km for the given molecules.
Give bare numbers, in µM.

molecule	endpoint_label	result
Lys227Glu: SULT2A1 allozyme having a glutamate at amino acid residue 227 in place of a lysine (protein, UniProt Q06520 1-285, looked up, variant K227E) Sulfotransferase 2A1: MSDDFLWFEGIAFPTMGFRSETLRKVRDEFVIRDEDVIILTYPKSGTNWLAEILCLMHSKGDAKWIQSVPIWERSPWVESEIGYTALSETESPRLFSSHLPIQLFPKSFFSSKAKVIYLMRNPRDVLVSGYFFWKNMKFIKKPKSWEEYFEWFCQGTVLYGSWFDHIHGWMPMREEKNFLLLSYEELKQDTGRTIEKICQFLGKTLEPEELNLILKNSSFQSMKENEMSNYSLLSVDYVVDKAQLLRKGVSGDWKNHFTVAQAEDFDKLFQEKMADLPRELFPWE	Km	0.905

Could you now consider this next molecule?
Which Km value belongs to Ala261Thr: SULT2A1 allozyme having a threonine at amino acid 261 in place of an alanine (protein) MSDDFLWFEGIAFPTMGFRSETLRKVRDEFVIRDEDVIILTYPKSGTNWLAEILCLMHSKGDAKWIQSVPIWERSPWVESEIGYTALSESESPRLFSSHLPIQLFPKSFFSSKAKVIYLMRNPRDVLVSGYFFWKNMKFIKKPKSWEEYFEWFCQGTVLYGSWFDHIHGWMPMREEKNFLLLSYEELKQDTGRTIEKICQFLGKTLEPEELNLILKNSSFQSMKENKMSNYSLLSVDYVVDKAQLLRKGVSGDWKNHFTVTQAEDFDKLFQEKMADLPRELFPWE ? 0.245
